The origin of these recorded values is patent US9562035B2.

Tested on: A2780 ovarian cells
Assay: A2780 Ovarian Cell Proliferation Assay in Lipid Reduced Medium, without Palmitate
Format: cell-based
Conditions: Homo sapiens, A2780; lipid reduced medium, without palmitate, 96 h, MTT; read-out: Proliferation A2780 w/o Palmitate pIC50 (converted)
Hi there, I'd appreciate the recorded IC50 for every entry that follows.
Express your answer in nM, writing the number without its unit.

Ask: # lookup: IC50 of Cc1ccc(C(=O)N2CCC(c3ccc4ccncc4c3)CC2)cc1NC(=O)c1ccc(Cl)nc1
Reply: 617

Ask: # get_value(readout='IC50', item= Cc1ccc(C(=O)N2CCC(c3ccc(-c4cnn(C)c4)cc3)CC2)cc1NC(=O)c1ccc2c(c1)OCO2 )
Reply: 91.2

Ask: If you can, please state the reported IC50 value of Cc1ccc(C(=O)N2CC(c3ccc(-c4ccnn4C)cc3)C2)cc1NC(=O)c1ccc(NC(C)C)nc1 .
Reply: 34.7

Ask: For Cc1ccc(C(=O)N2CCC(c3ccc(-c4cnn(C)c4)cc3)CC2)cc1NC(=O)C1CCN(CCC(C)C)C1 (stereo not shown) , what is its reported IC50?
Reply: 110

Ask: # query: IC50 of entry CCCCC(C)N1CCC(C(=O)Nc2cc(C(=O)N3CCC(c4ccc(-c5cnn(C)c5)cc4)CC3)ccc2C)C1 (stereo not shown)
Reply: 288

###

Exercise: for every item that follows, state its recorded pIC50.
Schema: pIC50 number; meaning minus log10 of the concentration expressed in molar units.

Ask: State its pIC50 on hFASN enzyme (full length) (Homo sapiens, UniProt P49327): COCCNc1ccc(C(=O)N2CCC(c3ccc(-c4cnn(C)c4)cc3)CC2)cc1NC(=O)c1ccc(NC(C)C)nc1
Sequence (P49327 whole entry): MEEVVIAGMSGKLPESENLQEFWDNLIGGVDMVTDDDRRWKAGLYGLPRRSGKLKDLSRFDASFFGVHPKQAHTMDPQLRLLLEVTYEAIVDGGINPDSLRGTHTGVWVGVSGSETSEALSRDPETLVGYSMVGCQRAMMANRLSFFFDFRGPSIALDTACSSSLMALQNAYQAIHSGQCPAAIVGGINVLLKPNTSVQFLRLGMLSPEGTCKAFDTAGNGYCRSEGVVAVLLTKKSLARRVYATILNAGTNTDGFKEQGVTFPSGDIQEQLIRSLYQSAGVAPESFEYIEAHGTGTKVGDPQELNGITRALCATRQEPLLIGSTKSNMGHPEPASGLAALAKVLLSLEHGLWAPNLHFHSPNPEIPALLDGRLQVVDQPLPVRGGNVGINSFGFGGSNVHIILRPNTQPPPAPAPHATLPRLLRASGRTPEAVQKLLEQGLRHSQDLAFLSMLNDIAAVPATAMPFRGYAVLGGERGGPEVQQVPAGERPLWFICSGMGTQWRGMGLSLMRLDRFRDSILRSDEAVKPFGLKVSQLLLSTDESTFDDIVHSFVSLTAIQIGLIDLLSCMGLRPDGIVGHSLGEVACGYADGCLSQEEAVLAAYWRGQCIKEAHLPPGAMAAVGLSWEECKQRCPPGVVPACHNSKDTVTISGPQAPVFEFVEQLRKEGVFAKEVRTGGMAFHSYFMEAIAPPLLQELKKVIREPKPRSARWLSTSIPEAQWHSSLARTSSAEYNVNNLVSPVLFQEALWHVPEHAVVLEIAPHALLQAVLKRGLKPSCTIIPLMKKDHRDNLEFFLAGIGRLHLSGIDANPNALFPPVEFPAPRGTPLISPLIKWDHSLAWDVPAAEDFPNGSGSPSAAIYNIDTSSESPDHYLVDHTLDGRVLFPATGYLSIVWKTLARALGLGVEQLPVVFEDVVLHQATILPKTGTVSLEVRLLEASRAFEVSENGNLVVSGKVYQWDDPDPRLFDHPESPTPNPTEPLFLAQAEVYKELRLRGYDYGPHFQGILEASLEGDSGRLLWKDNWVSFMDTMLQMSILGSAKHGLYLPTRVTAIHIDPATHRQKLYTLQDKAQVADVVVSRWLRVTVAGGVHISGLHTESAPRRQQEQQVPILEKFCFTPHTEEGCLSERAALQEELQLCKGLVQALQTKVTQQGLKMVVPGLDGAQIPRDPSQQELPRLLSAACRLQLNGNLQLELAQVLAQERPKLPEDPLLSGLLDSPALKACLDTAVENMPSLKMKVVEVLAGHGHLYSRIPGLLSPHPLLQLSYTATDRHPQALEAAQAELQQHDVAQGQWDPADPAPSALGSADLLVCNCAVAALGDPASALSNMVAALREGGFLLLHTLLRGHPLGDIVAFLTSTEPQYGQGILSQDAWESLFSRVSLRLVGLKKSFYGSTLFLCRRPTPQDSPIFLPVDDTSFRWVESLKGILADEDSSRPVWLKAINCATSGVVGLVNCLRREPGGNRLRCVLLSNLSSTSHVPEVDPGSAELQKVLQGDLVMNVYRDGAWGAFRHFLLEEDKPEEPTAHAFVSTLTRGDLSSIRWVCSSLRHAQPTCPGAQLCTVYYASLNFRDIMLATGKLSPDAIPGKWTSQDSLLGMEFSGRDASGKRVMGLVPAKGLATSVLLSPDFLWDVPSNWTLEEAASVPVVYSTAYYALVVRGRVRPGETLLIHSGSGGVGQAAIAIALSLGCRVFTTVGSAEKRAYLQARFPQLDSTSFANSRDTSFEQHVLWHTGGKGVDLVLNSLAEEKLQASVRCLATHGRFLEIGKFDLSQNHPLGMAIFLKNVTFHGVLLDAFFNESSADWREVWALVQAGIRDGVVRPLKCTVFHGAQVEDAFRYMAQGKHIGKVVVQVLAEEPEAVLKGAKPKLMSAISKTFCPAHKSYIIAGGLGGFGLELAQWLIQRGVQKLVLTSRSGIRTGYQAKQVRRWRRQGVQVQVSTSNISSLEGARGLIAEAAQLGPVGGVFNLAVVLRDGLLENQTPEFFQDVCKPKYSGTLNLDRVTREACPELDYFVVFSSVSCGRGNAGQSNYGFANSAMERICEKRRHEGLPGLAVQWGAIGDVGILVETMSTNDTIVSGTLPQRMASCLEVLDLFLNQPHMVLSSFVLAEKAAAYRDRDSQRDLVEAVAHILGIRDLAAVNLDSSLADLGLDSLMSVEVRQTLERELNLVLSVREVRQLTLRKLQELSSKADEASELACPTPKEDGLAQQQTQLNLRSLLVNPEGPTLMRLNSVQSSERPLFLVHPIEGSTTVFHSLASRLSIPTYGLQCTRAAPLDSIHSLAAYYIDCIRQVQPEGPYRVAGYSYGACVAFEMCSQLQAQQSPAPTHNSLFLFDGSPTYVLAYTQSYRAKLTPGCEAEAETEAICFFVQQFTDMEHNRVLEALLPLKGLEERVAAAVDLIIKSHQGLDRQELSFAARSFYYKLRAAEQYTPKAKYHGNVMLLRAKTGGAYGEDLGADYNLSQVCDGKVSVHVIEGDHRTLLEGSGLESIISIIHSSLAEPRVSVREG
Reply: 7.15

Ask: Provide the documented pIC50 with hFASN enzyme (full length) (Homo sapiens, UniProt P49327) as the system for CC(C)Nc1ccc(C(=O)Nc2cc(C(=O)N3CCC(c4ccc(-c5ccc6cnccc6c5)cc4)CC3)ccc2Cl)cn1
Reply: 6.82

Ask: Missing value: pIC50, hFASN enzyme (full length) (Homo sapiens, UniProt P49327), entry Cc1ccc(C(=O)N2CCC(c3ccc(-c4cnn(C)c4)cc3)CC2)cc1NC(=O)C1CCN(C2CCCC2)C1 (centres unmarked) . Fill in?
Reply: 6.90

Ask: Provide the documented pIC50 with hFASN enzyme (full length) (Homo sapiens, UniProt P49327) as the system for Cc1ccc(C(=O)N2CCC(c3ccc(-c4cnn(C)c4)cc3)CC2)cc1NC(=O)C1CCN(CC(C)C)C1 (centres unmarked)
Reply: 7.21

Ask: GET /values?readout=pIC50&system=hFASN enzyme (full length) (Homo sapiens, UniProt P49327)&item= Cc1ccc(C(=O)N2CCC(c3ccc(-c4cnn(C)c4)cc3)CC2)cc1NC(=O)C(C)C
Reply: 6.97

Ask: Hi! What's the reported pIC50 for Cc1ccc(C(=O)N2CCC(c3ccc(-c4cnn(C)c4)cc3)CC2)cc1NC(=O)C1CN(CC(C)(C)C)C1 on hFASN enzyme (full length) (Homo sapiens, UniProt P49327)?
Reply: 7.13

###

Test system: A2780 ovarian cells
Test: A2780 Ovarian Cell Proliferation Assay in Lipid Reduced Medium, without Palmitate
Type: cell-based
Details: Homo sapiens, A2780; lipid reduced medium, without palmitate, 96 h, MTT; read-out: Proliferation A2780 w/o Palmitate pIC50 (converted)
Threshold check on IC50: strictly below 200 nM is Y; on or above 200 nM is N.

Ask: Problem: For the molecule CCCCCN1CC(C(=O)Nc2cc(C(=O)N3CCC(c4ccc(-c5cnn(C)c5)cc4)CC3)ccc2C)C1 , is IC50 under 200 nM?
Reply: N

Ask: In plain terms, does Cc1ccc(C(=O)N2CC(c3ccc(-c4ccncc4N)cc3)C2)cc1NC(=O)c1ccc(N2CCOCC2)nc1 come in under 200 nM for IC50?
Reply: Y

Ask: Say whether its IC50 is strictly beneath 200 nM. Entry: Cc1ccc(C(=O)N2CCC(c3ccc(-c4cnn(C)c4)cc3)CC2)cc1NC(=O)c1ccc(F)c(F)c1F
Reply: Y

Ask: Strictly below 200 nM: is that where IC50 of Cc1ccc(C(=O)N2CC(c3ccc(-c4cnn(C)c4)cc3)C2)cc1NC(=O)c1ccc2ccccc2n1 sits?
Reply: N

Ask: A record lists Cc1ccc(C(=O)N2CCC(c3ccc(-c4cnn(C)c4)cc3)CC2)cc1NC(=O)C1CCN(C2CCC(C)C2)C1 (stereo not shown) . Is its IC50 below 200 nM?
Reply: Y

Ask: Determine whether this molecule shows IC50 lower than 200 nM (ties excluded): Cc1ccc(C(=O)N2CC(c3ccc(-c4ccnn4C)cc3)C2)cc1NC(=O)c1ccc(N(C)C(C)C)nc1
Reply: Y

Ask: In the record for Cc1ccc(C(=O)N2CCC(c3ccc(-c4cnn(C)c4)cc3)CC2)cc1NC(=O)C1CCCCC1 , is IC50 less than 200 nM?
Reply: Y

Ask: In the record for CN(C)c1ccc(C(=O)N2CCC(c3ccc(-c4cnn(C)c4)cc3)CC2)cc1NC(=O)C1CC1 , is IC50 less than 200 nM?
Reply: Y

Ask: Threshold test, IC50 < 200 nM: Cc1ccc(C(=O)Nc2cc(C(=O)N3CCC(c4ccc(-c5cnn(C)c5)cc4)CC3)ccc2C)s1
Reply: Y

###

Molecular target: FASN Keto-reductase Domain (Homo sapiens, UniProt P49327)
Construct: 10 μL hFASN enzyme (full length, 300 ng, purified in house) and 360 μM NADPH; made in house
Sequence (P49327 whole entry, the tested form may be a part): as the sequence (P49327 whole entry) above
Experiment: Fatty Acid Synthase Keto-Reductase Domain (FASN KR) Inhibition
Assay type: biochemical
Conditions: mean where tested more than once; read-out: FASN K-R Domain pIC50 (converted)
endpoint-name: IC50

Ask: I am curious: what IC50 value has been reported for Cc1ccc(C(=O)N2CCC(c3ccc(-n4ccnc4)cc3)CC2)cc1NC(=O)c1ccc(NC(C)C)nc1 [Compound #15] ?
Reply: 37.2 nM

Ask: Item under review: Cc1ccc(C(=O)N2CCC(c3ccc(-c4cccs4)cc3)CC2)cc1NC(=O)c1ccc(NC(C)C)nc1 [Compound 236] . Reported IC50?
Reply: 355 nM

Ask: Recorded IC50 for CN(c1ccc(C(=O)N2CCC(c3ccc(-c4cnn(C)c4)cc3)CC2)cc1NC(=O)C1CC1)C1CC1 [Compound 288] , please?
Reply: 2510 nM

###

Test system: A2780 ovarian cells
Assay: A2780 Ovarian Cell Proliferation Assay in Lipid Reduced Medium, without Palmitate
Assay type: cell-based
Settings: Homo sapiens, A2780; lipid reduced medium, without palmitate, 96 h, MTT; read-out: Proliferation A2780 w/o Palmitate pIC50 (converted)
Under this convention, yes (1) denotes IC50 strictly below 100 nM and no (0) denotes IC50 at or above 100 nM.

Ask: Decide: IC50 of Cc1ccc(C(=O)N2CCC(c3ccc(-c4cnn(C)c4)cn3)CC2)cc1NC(=O)c1ccc(Cl)nc1 strictly below 100 nM?
Reply: no (0)

Ask: Is 100 nM strictly greater than the molecule's reported IC50? molecule: Cc1ccc(C(=O)N2CC(c3ccc(-c4cnn(C)c4)cc3)C2)cc1NC(=O)c1ccccc1F
Reply: yes (1)

Ask: Would you kindly verify if IC50 of Cc1ccc(C(=O)N2CCC(c3ccc(-c4cnn(C)c4)cc3)CC2)cc1NC(=O)C1CCNCC1 is strictly less than 100 nM?
Reply: no (0)

Ask: Item CC(C)Nc1ccc(C(=O)Nc2cc(C(=O)N3CC(c4ccc(-c5ccnn5C)cc4)C3)ccc2Cl)cn1 : IC50 beneath 100 nM, strictly?
Reply: yes (1)

Ask: Determine if CC(C)Nc1ccc(C(=O)Nc2cc(C(=O)N3CCC(c4ccc(-c5cnn(C)c5)cc4)CC3)ccc2N(C)C2CC2)cn1 shows IC50 strictly lower than 100 nM.
Reply: no (0)

Ask: Please indicate whether the reported IC50 of CC(C)Nc1ccc(C(=O)Nc2cc(C(=O)N3CCC(c4ccc(-c5cnn(C)c5)cc4)CC3)ccc2OCc2ccccc2)cn1 is strictly below 100 nM.
Reply: no (0)

Ask: Identify whether the molecule COc1ccc(C(=O)N2CCC(c3ccc(-c4cnn(C)c4)cc3)CC2)cc1NC(=O)c1ccc(NC(C)C)nc1 records IC50 below 100 nM.
Reply: yes (1)

Ask: Strictly below 100 nM in IC50? Cc1cc(C(=O)Nc2cc(C(=O)N3CCC(c4ccc(-c5cnn(C)c5)cc4)CC3)ccc2C)ccn1
Reply: yes (1)

Ask: Determine whether this molecule shows IC50 lower than 100 nM (ties excluded): COc1ccc(C(=O)Nc2cc(C(=O)N3CCC(c4ccc(-c5cnn(C)c5)cc4)CC3)ccc2C)cc1O
Reply: yes (1)

Ask: I wonder whether Cc1ccc(C(=O)N2CCC(c3ccc(-c4cnn(C)c4)cc3)CC2)cc1NC(=O)c1ccc(Cl)cc1Cl has IC50 below 100 nM. Can you tell?
Reply: no (0)

###

Tested on: LNCaP_Vancouver prostate cells
Assay: In Vitro LNCaP Vancouver Prostate Cell Proliferation Assay in Lipid Reduced Medium
Assay type: cell-based
Conditions: lipid reduced serum, 96 h, read-out: Vancouver Cells pIC50 (converted)
Would you kindly list IC50 for each of these compounds?

Ask: Fill in the blank: the reported IC50 of CC(C)Nc1ccc(C(=O)Nc2cc(C(=O)N3CCC(c4ccc(-c5cnn(C)c5)cc4)CC3)ccc2N)cn1 [Compound 285] is ____.
Reply: ~537 nM

Ask: # lookup: IC50 of CC(C)Nc1ccc(C(=O)Nc2cc(C(=O)N3CCC(c4ccc(-c5cnn(C)c5)cc4)CC3)ccc2NC(C)C)cn1 [Compound 284]
Reply: 1020 nM

Ask: Consider the compound CN(c1ccc(C(=O)N2CCC(c3ccc(-c4cnn(C)c4)cc3)CC2)cc1NC(=O)C1CC1)C1CC1 [Compound 288] and give its measured IC50.
Reply: ~9770 nM
